Measured apparent KD of MS2 coat protein accompanies every entry in the list below.
tested on: MS2 coat protein; test: apparent KD of MS2 coat protein; designed switch direction (-1 OFF switch, 1 ON switch): -1; higher = weaker reporter binding; conditions: Eterna round: R98; input ligand: none
Give me the value, and tack the unit on after it.

Consider the following illustrative entries.
GCACUGGAUGUAGGAUAUCAGGACGAUAAGUCCUGAGAAGGACAUGAGGAUCACCCAUGUCCCAAAACCAGUGCAUAUAAUAUA [Denovo Exng1 31]    14.3 nM
GCGCGCGCGUCAGGAUAUACAUGAGGAUCACCCAUGUGUGCGCGCGCGCGCGCGCGCGCGCGCGUGUAGAAGGGACGCUGUCGC [Incredible-Exclusion NG 2]    14.4 nM

Ask: Please tell me the measured apparent KD of MS2 coat protein for UCAGGUCGGGAAGGAUAUCGGCCGCAGAGAGCUCGAGAAGGUCCCGACAUGAGGAUCACCCAUGUUGAAGGAUCCUAACGUGCC [Maonan] ; system: MS2 coat protein.
Reply: 38.3 nM

Ask: Please tell me the measured apparent KD of MS2 coat protein for AAAAUAAAGGCAGGAUAUACAUGAAUAUAUAAUAUAAUAUAUAAUAUAACAUGAGGAUCACCCAUGUAGAAGGGCCAAAAUAAA [LRO026_Exclusion NG 2] ; system: MS2 coat protein.
Reply: 46.4 nM

Ask: Please tell me the measured apparent KD of MS2 coat protein for AAUAUAAAGAGCUGGUCUCAAAUAACAUGAGGAUCACCCAUGUAGGAUAUCAGCACGAUAAGUGCUGAGAAGGACAUCCAGCUC [Denovo 49] ; system: MS2 coat protein.
Reply: 15.9 nM
